test system: heart muscle; assay: Heart muscle uptake and elimination of radiolabelled fatty acids after tail vein injection in mice; format: in vivo, NMRI mice; conditions: mouse, in vivo
measure: Max. Enrichment in % of Injected Dose per Heart

Look over these answered cases.
In [3]: df
Out[3]:
                                   compound                      recorded_measurement
0  O=C(O)CCCCCCCCCCCCCCCC[123I] [17-^123 I-Heptadecanoic acid]   3.97 ± 0.4 % of Injected Dose per Heart
1  CCCCCCCCCCCCCCCCC([34Cl])C(=O)O (stereo not drawn) [2-^34m Cl-Stearic acid]   2.03 ± 0.1 % of Injected Dose per Heart
2  CCCCCCCCCCCCCCCCC([123I])C(=O)O (stereo not drawn) [2-^123 I-Stearic acid]  1.411 ± 0.1 % of Injected Dose per Heart
3  O=C(O)CCCCCCCCCCCCCCC[123I] [16-^123 I-Palmitic acid]   3.36 ± 0.4 % of Injected Dose per Heart
4  O=C(O)CCCCCCCCCCCCCCCC[77Br] [17-^77 Br-Heptadecanoic acid]  2.210 ± 0.6 % of Injected Dose per Heart

Report Max. Enrichment in % of Injected Dose per Heart under test system heart muscle for CCCCCCCCCCCCCCCCC([77Br])C(=O)O (stereo not drawn) [2-^77 Br-Stearic acid] . 1.47 ± 0.3 % of Injected Dose per Heart
